Molecular target: CDC34A-ubiquitin complex (Homo sapiens, UniProt P0CG48+P49427)
Sequence (P49427 whole entry, other chains not shown): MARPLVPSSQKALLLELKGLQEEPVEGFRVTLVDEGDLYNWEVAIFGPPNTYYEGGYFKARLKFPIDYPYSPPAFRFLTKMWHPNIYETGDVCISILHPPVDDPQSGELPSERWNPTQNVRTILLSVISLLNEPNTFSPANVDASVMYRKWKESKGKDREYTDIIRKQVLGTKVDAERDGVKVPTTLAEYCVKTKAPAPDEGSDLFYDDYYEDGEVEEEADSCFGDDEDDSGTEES
Test: biochemical
Assay type: binding
Conditions: TR-FRET EC50
Assay readout: EC50 (µM)

a. COCC(=O)N1CCC(Cc2ccc(-c3cc(Cl)cc(Cl)c3)cc2)(C(=O)NC2CC2)CC1 [2al]
b. CCNC(=O)C1(Cc2ccc(-c3cc(Cl)cc(Cl)c3)cc2)CCN(C(=O)OCC(C)C)CC1 [2db]
c. COCC(=O)N1CCC(Cc2ccc(-c3cc(Cl)cc(Cl)c3)cc2)(C(=O)N2CCCC2)CC1 [2aα]
Quick favor: sort the compounds up above by EC50, largest first. Please list each label once, in the requested order.
a, c, b
(a: 5 µM, c: 3 µM, b: 0.4 µM)

Values were extracted from paper PMC10763754.
